Tested system: GSPT1 (Homo sapiens, UniProt P15170+Q96SW2)
Sequence (P15170 whole entry): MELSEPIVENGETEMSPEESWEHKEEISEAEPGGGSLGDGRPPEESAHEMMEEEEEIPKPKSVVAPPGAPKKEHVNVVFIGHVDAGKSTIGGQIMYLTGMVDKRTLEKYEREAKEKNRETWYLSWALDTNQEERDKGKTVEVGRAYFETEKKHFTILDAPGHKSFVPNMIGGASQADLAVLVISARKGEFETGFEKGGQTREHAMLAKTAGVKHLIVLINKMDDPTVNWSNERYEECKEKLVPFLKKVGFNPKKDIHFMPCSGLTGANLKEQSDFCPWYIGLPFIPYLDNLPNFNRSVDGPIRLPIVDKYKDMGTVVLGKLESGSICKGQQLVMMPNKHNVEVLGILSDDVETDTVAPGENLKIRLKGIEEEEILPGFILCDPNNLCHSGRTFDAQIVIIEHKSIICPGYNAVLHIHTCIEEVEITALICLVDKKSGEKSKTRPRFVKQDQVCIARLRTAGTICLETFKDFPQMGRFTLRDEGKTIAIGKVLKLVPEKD
Sequence (Q96SW2 whole entry): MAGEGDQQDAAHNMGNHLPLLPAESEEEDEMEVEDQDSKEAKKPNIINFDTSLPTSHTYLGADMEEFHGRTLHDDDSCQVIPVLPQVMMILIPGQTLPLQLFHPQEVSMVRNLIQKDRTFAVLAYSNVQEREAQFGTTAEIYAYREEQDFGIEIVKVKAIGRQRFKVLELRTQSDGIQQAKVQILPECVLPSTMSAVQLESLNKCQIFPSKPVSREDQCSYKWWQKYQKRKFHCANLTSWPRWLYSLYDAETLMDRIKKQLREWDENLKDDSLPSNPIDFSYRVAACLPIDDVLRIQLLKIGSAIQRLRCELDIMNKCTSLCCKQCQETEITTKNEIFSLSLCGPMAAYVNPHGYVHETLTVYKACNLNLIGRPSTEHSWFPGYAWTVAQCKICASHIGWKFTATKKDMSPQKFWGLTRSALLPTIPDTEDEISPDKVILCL
Sequence (Q16531 whole entry partner): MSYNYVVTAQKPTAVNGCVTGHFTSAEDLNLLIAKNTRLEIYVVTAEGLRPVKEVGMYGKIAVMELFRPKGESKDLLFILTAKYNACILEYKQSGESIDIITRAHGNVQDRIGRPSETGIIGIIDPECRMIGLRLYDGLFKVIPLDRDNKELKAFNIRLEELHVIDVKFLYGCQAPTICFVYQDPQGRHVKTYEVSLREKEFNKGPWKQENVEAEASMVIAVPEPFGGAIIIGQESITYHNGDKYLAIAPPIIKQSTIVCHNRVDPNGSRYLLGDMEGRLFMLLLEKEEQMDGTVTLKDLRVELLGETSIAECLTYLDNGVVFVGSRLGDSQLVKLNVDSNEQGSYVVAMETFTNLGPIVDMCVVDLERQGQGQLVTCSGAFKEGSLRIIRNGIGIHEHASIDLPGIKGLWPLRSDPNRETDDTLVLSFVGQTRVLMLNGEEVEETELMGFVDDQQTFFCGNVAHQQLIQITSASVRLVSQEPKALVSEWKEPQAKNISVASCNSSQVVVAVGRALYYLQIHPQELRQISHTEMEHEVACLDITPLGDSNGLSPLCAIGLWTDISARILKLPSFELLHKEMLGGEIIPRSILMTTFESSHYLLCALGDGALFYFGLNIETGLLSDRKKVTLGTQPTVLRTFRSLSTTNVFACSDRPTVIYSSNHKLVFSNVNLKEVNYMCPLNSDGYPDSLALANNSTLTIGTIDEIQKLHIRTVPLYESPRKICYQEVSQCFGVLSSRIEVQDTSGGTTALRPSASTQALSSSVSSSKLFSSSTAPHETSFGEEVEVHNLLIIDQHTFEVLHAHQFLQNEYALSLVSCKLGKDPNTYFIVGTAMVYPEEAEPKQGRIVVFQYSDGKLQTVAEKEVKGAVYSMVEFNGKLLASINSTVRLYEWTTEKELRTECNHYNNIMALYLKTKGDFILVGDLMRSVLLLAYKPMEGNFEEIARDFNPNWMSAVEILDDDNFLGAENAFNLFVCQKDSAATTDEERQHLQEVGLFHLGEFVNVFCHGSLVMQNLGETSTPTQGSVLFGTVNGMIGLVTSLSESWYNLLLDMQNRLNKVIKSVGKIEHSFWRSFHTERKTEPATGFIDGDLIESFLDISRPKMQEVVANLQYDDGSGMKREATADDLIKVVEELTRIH
Measurement description: cell-based
Assay context: MV4-11; MV-4-11 cells, 1 μM, 6 hours, Western Blot, % reduction of GSPT1 compared to DMSO, normalized to GAPDH; read-out: GSPT1 degradation classification
Please go through the items and note down their inhibition at 1 µM.

q: Recorded inhibition at 1 µM of O=C1CCC(N2Cc3cc(C(=O)N4CCc5cc(Cl)cc(F)c54)ccc3C2=O)C(=O)N1 (stereo not shown) , please.
a: 50 to 75%

q: Next compound: O=C1CCC(N2Cc3cc(C(=O)N4Cc5cccc(C(F)(F)F)c5C4)ccc3C2=O)C(=O)N1 (stereo not shown)
a: > 75%

q: Next compound: COc1cccc2c1N(C(=O)c1ccc3c(c1)CN(C1CCC(=O)NC1=O)C3=O)CC2 (stereo not shown)
a: < 50%

q: Next compound: O=C1CCC(N2Cc3cc(C(=O)N4CCc5ncccc54)ccc3C2=O)C(=O)N1 (stereo not shown)
a: 50 to 75%

q: Next compound: O=C1CCC(N2Cc3cc(C(=O)Nc4csc5cccnc45)ccc3C2=O)C(=O)N1 (stereo not shown)
a: > 75%

q: Next compound: O=C1CCC(N2Cc3cc(C(=O)Nc4csc5ncccc45)ccc3C2=O)C(=O)N1 (stereo not shown)
a: < 50%

q: Next compound: COc1cccc2c1CCN2C(=O)c1ccc2c(c1)CN(C1CCC(=O)NC1=O)C2=O (stereo not shown)
a: 50 to 75%

q: Next compound: O=C1CCC(N2Cc3cc(C(=O)Nc4csc5cnccc45)ccc3C2=O)C(=O)N1 (stereo not shown)
a: > 75%

q: Next compound: O=C1CCC(N2Cc3cc(C(=O)N4Cc5ccc(C(F)(F)F)cc5C4)ccc3C2=O)C(=O)N1 (stereo not shown)
a: > 75%

q: Next compound: O=C1CCC(N2Cc3cc(C(=O)N4Cc5ccncc5C4)ccc3C2=O)C(=O)N1 (stereo not shown)
a: 50 to 75%
